molecular target: mutant HIV reverse transcriptases (Human immunodeficiency virus type 1, UniProt P12497, Y768C, cells depend on it)
pEC50: −log10 of the molar value.
I'd appreciate it if you could supply pEC50 values for the items below.

Task: What value of measured pEC50 is listed for Cc1ccc2c(C)cc(C)c(-n3c(SCC(=O)Nc4ccc(S(N)(=O)=O)cc4Cl)nnc3C(F)F)c2n1 [compound 63] ?
Result: > 7.30

Task: Tell me the measured pEC50 of CCOC(=O)C(C)NS(=O)(=O)c1ccc(NC(=O)CSc2nnc(C(F)F)n2-c2ccc(C)c3c2CCCC3)c(Cl)c1 (stereo not shown) [compound 56] , please.
Result: > 7.30

Task: Request the reported pEC50 associated with CN(CC(=O)O)C(=O)c1ccc(NC(=O)CSc2nnc(Br)n2-c2ccc(C3CC3)c3ccccc23)c(Cl)c1 [compound 111]
Result: < 7.00

Task: Requested field: pEC50. Item: Cc1cc(S(N)(=O)=O)ccc1NC(=O)CSc1nnc(Br)n1-c1ccc(F)c2ccccc12 [compound 62]
Result: > 7.30

Task: Using the record for CCc1cc(C2CC2)ccc1-n1c(Br)nnc1SCC(=O)Nc1ccc(C(=O)O)cc1Cl [compound 29] , report its pEC50.
Result: > 7.30

Task: Value lookup for pEC50; key = Cc1cc(C2CC2)c2ccccc2c1-n1c(Br)nnc1SCC(=O)Nc1ccc(S(N)(=O)=O)cc1Cl [compound 50]
Result: > 7.30

Task: Field request: pEC50 | item: O=C(CSc1nnc(Br)n1-c1ccc(C2CC2)c2ccccc12)Nc1ccc(C(=O)N[C@@H](Cc2ccc(O)cc2)C(=O)O)cc1Cl [compound 116]
Result: < 7.00

###

molecular target: wild-type HIV reverse transcriptase (Human immunodeficiency virus type 1 group M subtype B); construct: wild-type and four mutant HIV reverse transcriptases; assay: Activity on wild type reverse transcriptase (Table 1 IC50 WT); format: biochemical
reported.property: IC50

Task: What measured IC50 goes with Cc1cc(S(N)(=O)=O)ccc1NC(=O)CSc1nnc(Br)n1-c1c(Cl)cc(C2CCC2)c2ccccc12 [compound 92] ?
Result: < 50 nM

Task: Returns the measured IC50 for the input compound. Input: CCc1ccc(-n2c(SCC(=O)Nc3ccc(C(=O)O)cc3C)nnc2C(F)F)c2ccccc12 [compound 3]
Result: < 50 nM

Task: For the compound shown here, NS(=O)(=O)c1ccc(NC(=O)CSc2nnc(Br)n2-c2ccc(F)c3ccccc23)c(Cl)c1 [compound 61] , give the reported IC50.
Result: < 50 nM

Task: GET /values?readout=IC50&item= COC(=O)[C@H](CC(C)C)NC(=O)c1ccc(NC(=O)CSc2nnc(Br)n2-c2ccc(C3CC3)c3ccccc23)c(Cl)c1 [compound 115]
Result: < 50 nM

Task: Please give the measured IC50 for this compound: CCc1ccc(-n2c(Br)nnc2SCC(=O)Nc2ccc(C(=O)N3CCC(O)CC3)cc2Cl)c2ccccc12 [compound 134]
Result: < 50 nM

Task: What measured IC50 goes with CCOC(=O)CNC(=O)c1ccc(NC(=O)CSc2nnc(Br)n2-c2ccc(C3CC3)c3ccccc23)c(Cl)c1 [compound 101] ?
Result: < 50 nM

Task: What value of IC50 has been reported for the following compound? Cc1ccc(-n2c(SCC(=O)Nc3ccc(S(=O)(=O)NCCN4CCOCC4)cc3Cl)nnc2C(F)F)c2c1CCCC2 [compound 57]
Result: < 50 nM
